molecular target: soluble human insulin mini-receptor (mIR) (human) (UniProt P06213); assay: FP competition vs FITC-RP9, mIR
Sequence (P06213 other isoform, or with tags, fused parts or gaps limits assumed): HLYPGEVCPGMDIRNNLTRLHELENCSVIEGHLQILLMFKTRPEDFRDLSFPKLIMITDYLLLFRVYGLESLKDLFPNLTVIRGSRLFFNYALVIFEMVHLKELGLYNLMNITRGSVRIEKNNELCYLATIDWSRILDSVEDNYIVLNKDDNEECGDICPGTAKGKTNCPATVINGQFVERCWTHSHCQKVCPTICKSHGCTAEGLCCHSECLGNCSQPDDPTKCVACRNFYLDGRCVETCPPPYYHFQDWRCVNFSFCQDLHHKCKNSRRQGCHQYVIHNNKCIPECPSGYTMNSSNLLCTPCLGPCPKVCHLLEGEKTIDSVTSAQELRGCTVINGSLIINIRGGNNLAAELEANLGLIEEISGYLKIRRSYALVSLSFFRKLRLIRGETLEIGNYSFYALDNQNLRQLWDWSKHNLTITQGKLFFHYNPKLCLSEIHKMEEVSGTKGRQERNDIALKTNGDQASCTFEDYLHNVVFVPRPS
TEST_READOUT: pIC50
Please note pIC50 is a logarithmic value: minus log10 of concentration in mol/L. Answer with that number alone.

Give the reported value of pIC50 for this record: FHENFYDWFVQRVSKK [H2C]
6.11
